These measurements were taken from the Immune Epitope Database (IEDB).

molecular target: HLA-A*33:01; assay: IEDB peptide-MHC binding, purified MHC/competitive/radioactivity; filed as Kd, often an IC50 or EC50 that approximates it; bounds were set here for any values at or beyond the usual limits of such assays; conditions: source organism: Vaccinia virus WR
pKd: −log10 of the molar value.
Field: pKd. Provide a value for each of the sequences that follow.

(Q) What value of pKd has been reported for the following sequence? GTIAGGVCY
(A) ≤ 4.11

(Q) What value of pKd has been reported for the following sequence? YVGIKLGDK
(A) ≤ 4.30

(Q) What value of pKd has been reported for the following sequence? TQMRTPLHK
(A) ≤ 4.11

(Q) What value of pKd has been reported for the following sequence? RIGTAATKR
(A) ≤ 4.11

(Q) What value of pKd has been reported for the following sequence? PFEKEFTSDY
(A) ≤ 4.15

(Q) What value of pKd has been reported for the following sequence? KAIITPVVFY
(A) ≤ 4.15

(Q) What value of pKd has been reported for the following sequence? RTKLMSNIK
(A) ≤ 4.25

(Q) What value of pKd has been reported for the following sequence? SIILANERY
(A) ≤ 4.11

(Q) What value of pKd has been reported for the following sequence? EFCVDHPFIY
(A) ≤ 4.35

---

target: HLA-A*31:01; test: IEDB peptide-MHC binding, purified MHC/competitive/radioactivity; filed as Kd, often an IC50 or EC50 that approximates it; bounds were set here for any values at or beyond the usual limits of such assays; conditions: source organism: Dengue virus 3 Martinique/1243/1999
parameter: pKd
Note on units: pKd is unitless, being -log10 of a concentration expressed in mol/L.

(Q) What value of pKd has been reported for the following sequence? PFLALGFFLR
(A) 6.73

(Q) What value of pKd has been reported for the following sequence? ISQGAGWSLR
(A) 8.06

(Q) What value of pKd has been reported for the following sequence? KLIHEWCCR
(A) 7.40

(Q) What value of pKd has been reported for the following sequence? MGITAEWLWR
(A) 7.05

---

Field: Kd. Provide a value for each of the sequences that follow.
molecular target: HLA-A*30:01; assay: IEDB peptide-MHC binding, purified MHC/competitive/radioactivity; filed as Kd, often an IC50 or EC50 that approximates it; bounds were set here for any values at or beyond the usual limits of such assays; conditions: source organism: Vaccinia virus WR
Give just the numeric value; nM need not be written.

(Q) What value of Kd has been reported for the following sequence? ASKFVYVSV
(A) 3.09

(Q) What value of Kd has been reported for the following sequence? MGRFGYVPY
(A) 14.8

(Q) What value of Kd has been reported for the following sequence? RALKAYFTA
(A) 66.1

(Q) What value of Kd has been reported for the following sequence? QIVAYFSEF
(A) 12700

(Q) What value of Kd has been reported for the following sequence? KFRPLMIFM
(A) 1.8

(Q) What value of Kd has been reported for the following sequence? MRRERAAYV
(A) 21.8

(Q) What value of Kd has been reported for the following sequence? KIKLILANK
(A) 109

(Q) What value of Kd has been reported for the following sequence? ISESRFQSL
(A) 5920

(Q) What value of Kd has been reported for the following sequence? WSIYLSLHY
(A) 17000

(Q) What value of Kd has been reported for the following sequence? HVSISSCNG
(A) 502

---

target: HLA-A*33:01; assay: IEDB peptide-MHC binding, purified MHC/competitive/radioactivity; filed as Kd, often an IC50 or EC50 that approximates it; bounds were set here for any values at or beyond the usual limits of such assays; details: source organism: SARS coronavirus Tor2
pKd: −log10 of the molar value.
parameter: pKd

(Q) Tell me reported pKd for IVNAANIHLK , tested with HLA-A*33:01.
(A) ≤ 4.15

(Q) Tell me reported pKd for ALAYYNNSK , tested with HLA-A*33:01.
(A) ≤ 4.34

(Q) Tell me reported pKd for ASLPTTIAK , tested with HLA-A*33:01.
(A) ≤ 4.39

(Q) Tell me reported pKd for WIMLLQFAY , tested with HLA-A*33:01.
(A) ≤ 4.11

(Q) Tell me reported pKd for ASLPYGANK , tested with HLA-A*33:01.
(A) ≤ 4.28

---

target: HLA-B*15:01; experiment: IEDB peptide-MHC binding, purified MHC/competitive/fluorescence; bounds were set here for any values at or beyond the usual limits of such assays; settings: source organism: Zaire ebolavirus
Field: IC50. Provide a value for each of the sequences that follow.

(Q) What value of IC50 has been reported for the following sequence? SLAKHGEYA
(A) ≥ 127 µM

(Q) What value of IC50 has been reported for the following sequence? ASLPKTSGH
(A) ≥ 143 µM

(Q) What value of IC50 has been reported for the following sequence? FLLIHQGMH
(A) ≥ 230 µM

(Q) What value of IC50 has been reported for the following sequence? GVPPKVVNY
(A) ≥ 211 µM

(Q) What value of IC50 has been reported for the following sequence? QQKNSQKGQ
(A) ≥ 93.5 µM

(Q) What value of IC50 has been reported for the following sequence? AKHGEYAPF
(A) ≥ 77.4 µM

---

biological target: HLA-A*03:01; test: IEDB peptide-MHC binding, purified MHC/competitive/radioactivity; filed as Kd, often an IC50 or EC50 that approximates it; bounds were set here for any values at or beyond the usual limits of such assays; conditions: source organism: Vaccinia virus WR
pKd: −log10 of the molar value.
Kindly return Y if reported pKd is no lower than 7; return N if it is lower.

(Q) # bool: pKd of DIVNEHDIK >= 7
(A) N

(Q) # bool: pKd of RIGTAATKRY >= 7
(A) N

(Q) # bool: pKd of PFEKEFTSDY >= 7
(A) N

(Q) # bool: pKd of VSKHWELTNK >= 7
(A) N

(Q) # bool: pKd of PSRSKMLKR >= 7
(A) Y

(Q) # bool: pKd of AARILSEKR >= 7
(A) N

(Q) # bool: pKd of SIILANERY >= 7
(A) N

(Q) # bool: pKd of LIPLSEMVVK >= 7
(A) N

(Q) # bool: pKd of RIGTAATKR >= 7
(A) N

(Q) # bool: pKd of FSPENKAFK >= 7
(A) N

(Q) # bool: pKd of GLFDFVNFVK >= 7
(A) Y

---

Field: Kd. Provide a value for each of the sequences that follow.
target: HLA-A*31:01; assay: IEDB peptide-MHC binding, purified MHC/competitive/radioactivity; filed as Kd, often an IC50 or EC50 that approximates it; bounds were set here for any values at or beyond the usual limits of such assays; details: source organism: Vaccinia virus WR

(Q) Tell me reported Kd for RIGTAATKRY , tested with HLA-A*31:01.
(A) ≥ 70 µM

(Q) Tell me reported Kd for AIEPSGNNY , tested with HLA-A*31:01.
(A) ≥ 77.9 µM

(Q) Tell me reported Kd for YVGIKLGDK , tested with HLA-A*31:01.
(A) ≥ 24.9 µM

---

target: HLA-A*02:03; assay: IEDB peptide-MHC binding, purified MHC/competitive/radioactivity; filed as Kd, often an IC50 or EC50 that approximates it; bounds were set here for any values at or beyond the usual limits of such assays; details: source organism: Vaccinia virus WR
parameter: pKd
Note on units: pKd is unitless, being -log10 of a concentration expressed in mol/L.

(Q) What value of pKd has been reported for the following sequence? LVQYRILPMI
(A) 5.92

(Q) What value of pKd has been reported for the following sequence? LVMDKNHAI
(A) 6.11

(Q) What value of pKd has been reported for the following sequence? AITLVVISVI
(A) 6.10

(Q) What value of pKd has been reported for the following sequence? LMTLDDLAI
(A) 7.12

(Q) What value of pKd has been reported for the following sequence? ITDNGPMPYM
(A) 5.93

(Q) What value of pKd has been reported for the following sequence? LLKCVSDSWL
(A) 6.93

(Q) What value of pKd has been reported for the following sequence? IICEDAMYYA
(A) 6.97

(Q) What value of pKd has been reported for the following sequence? AVKFAEESYT
(A) 5.83

---

Field: Kd. Provide a value for each of the sequences that follow.
molecular target: HLA-A*31:01; assay: IEDB peptide-MHC binding, purified MHC/competitive/radioactivity; filed as Kd, often an IC50 or EC50 that approximates it; bounds were set here for any values at or beyond the usual limits of such assays; settings: source organism: Vaccinia virus WR

(Q) What value of Kd has been reported for the following sequence? EFCVDHPFIY
(A) ≥ 37600 nM

(Q) What value of Kd has been reported for the following sequence? NSINNQLMY
(A) ≥ 77900 nM

(Q) What value of Kd has been reported for the following sequence? YVKALTKNY
(A) ≥ 77900 nM

(Q) What value of Kd has been reported for the following sequence? ISLNSMYTR
(A) 4.62 nM

(Q) What value of Kd has been reported for the following sequence? SMTYLYNKY
(A) ≥ 25000 nM

(Q) What value of Kd has been reported for the following sequence? QIDRLEDLSK
(A) 6790 nM

(Q) What value of Kd has been reported for the following sequence? KIKLILANK
(A) 1.46 nM

(Q) What value of Kd has been reported for the following sequence? PFEKEFTSDY
(A) ≥ 70000 nM

(Q) What value of Kd has been reported for the following sequence? CFPSTQRDY
(A) 9810 nM

(Q) What value of Kd has been reported for the following sequence? GLFDFVNFVK
(A) 66.1 nM

(Q) What value of Kd has been reported for the following sequence? VLSAATETY
(A) ≥ 69700 nM

(Q) What value of Kd has been reported for the following sequence? QAELTSNCTR
(A) 801 nM

(Q) What value of Kd has been reported for the following sequence? TIDKSSPLY
(A) ≥ 53700 nM

(Q) What value of Kd has been reported for the following sequence? RLTDTEYRAR
(A) 1.33 nM

(Q) What value of Kd has been reported for the following sequence? GVEDTESIER
(A) 1930 nM

(Q) What value of Kd has been reported for the following sequence? ISEKETLNEY
(A) ≥ 45800 nM

(Q) What value of Kd has been reported for the following sequence? TIQRFSSLRR
(A) 1.56 nM

(Q) What value of Kd has been reported for the following sequence? YILQLIRHGR
(A) 40.2 nM

(Q) What value of Kd has been reported for the following sequence? PSVNEYHMLK
(A) 408 nM

(Q) What value of Kd has been reported for the following sequence? TSASEIKDR
(A) 18900 nM

(Q) What value of Kd has been reported for the following sequence? LSKDKMDSFK
(A) 27.8 nM

(Q) What value of Kd has been reported for the following sequence? IFYFISIYSR
(A) 2.39 nM

(Q) What value of Kd has been reported for the following sequence? KALMQLTTK
(A) 135 nM

(Q) What value of Kd has been reported for the following sequence? NFIPIIYSK
(A) 13.9 nM

(Q) What value of Kd has been reported for the following sequence? VVMAYVGIK
(A) 2460 nM

(Q) What value of Kd has been reported for the following sequence? LIPLSEMVVK
(A) 7380 nM

(Q) What value of Kd has been reported for the following sequence? DIVNEHDIK
(A) ≥ 77900 nM

(Q) What value of Kd has been reported for the following sequence? FMTLVPVLEK
(A) 73.3 nM

(Q) What value of Kd has been reported for the following sequence? FISDNKKEYK
(A) 118 nM

(Q) What value of Kd has been reported for the following sequence? KAIITPVVFY
(A) ≥ 70000 nM

(Q) What value of Kd has been reported for the following sequence? MSSSVDVDIY
(A) ≥ 70000 nM

(Q) What value of Kd has been reported for the following sequence? GTIAGGVCY
(A) ≥ 62600 nM

(Q) What value of Kd has been reported for the following sequence? VVMHINSPFK
(A) 123 nM

(Q) What value of Kd has been reported for the following sequence? YSFKLILAEY
(A) 658 nM
